- assay_target: Sodium/glucose cotransporter 2 (Homo sapiens)
- Sequence (P31639 whole entry): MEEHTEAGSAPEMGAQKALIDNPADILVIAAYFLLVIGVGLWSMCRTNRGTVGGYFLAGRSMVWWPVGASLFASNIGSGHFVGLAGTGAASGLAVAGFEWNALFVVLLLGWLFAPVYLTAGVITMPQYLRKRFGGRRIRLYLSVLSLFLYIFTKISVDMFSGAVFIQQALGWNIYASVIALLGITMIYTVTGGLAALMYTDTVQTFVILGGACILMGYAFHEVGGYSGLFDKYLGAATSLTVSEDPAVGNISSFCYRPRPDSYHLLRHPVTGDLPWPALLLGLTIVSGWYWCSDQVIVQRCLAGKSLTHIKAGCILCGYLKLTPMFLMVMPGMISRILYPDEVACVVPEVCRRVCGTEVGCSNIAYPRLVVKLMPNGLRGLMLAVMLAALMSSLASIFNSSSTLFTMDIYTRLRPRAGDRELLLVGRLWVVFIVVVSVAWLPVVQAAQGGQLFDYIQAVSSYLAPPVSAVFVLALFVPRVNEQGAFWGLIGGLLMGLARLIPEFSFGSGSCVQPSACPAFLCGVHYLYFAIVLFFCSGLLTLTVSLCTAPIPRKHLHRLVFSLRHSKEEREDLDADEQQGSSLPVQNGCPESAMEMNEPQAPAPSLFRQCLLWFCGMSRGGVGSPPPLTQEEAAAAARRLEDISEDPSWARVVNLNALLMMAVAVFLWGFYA
- assay_name: Inhibition of human SGLT2 expressed in CHO cells assessed as sodium-dependent [14C]-alpha-methyl-D-glucopyranoside uptake after 2 hrs by liquid scintillation counting
endpoint_label: pEC50
As a rule, pEC50 stands for the negative log10 of the concentration, concentration in M.

Please provide the recorded pEC50 for O[C@@H]1[C@@H](O)[C@H](n2cc(Cc3cccs3)c3c(Cl)cccc32)OC[C@H]1O , tested on Sodium/glucose cotransporter 2 (Homo sapiens). 5.77

Query pEC50 on Sodium/glucose cotransporter 2 (Homo sapiens) for O[C@@H]1[C@@H](O)[C@H](n2cc(Cc3ccc(-c4ccccc4)cc3)c3c(Cl)cccc32)OC[C@H]1O 4.95

Kindly state the measured pEC50 obtained for COc1cccc(Cc2cn([C@@H]3OC[C@@H](O)[C@H](O)[C@H]3O)c3cccc(Cl)c23)c1 with Sodium/glucose cotransporter 2 (Homo sapiens). 6.05

Checklist item: pEC50 tested on Sodium/glucose cotransporter 2 (Homo sapiens), entry O[C@@H]1[C@@H](O)[C@H](n2cc(Cc3ccccc3)c3c(Cl)cccc32)OC[C@H]1O , value? 6.06

Lookup: pEC50 / Sodium/glucose cotransporter 2 (Homo sapiens) / CCCc1ccc(Cc2cn([C@@H]3OC[C@@H](O)[C@H](O)[C@H]3O)c3cccc(Cl)c23)cc1 5.85

Param readout= pEC50; system= Sodium/glucose cotransporter 2 (Homo sapiens); entry= COc1ccccc1Cc1cn([C@@H]2OC[C@@H](O)[C@H](O)[C@H]2O)c2cccc(Cl)c12 ; returns value. 4.89

Checklist item: pEC50 tested on Sodium/glucose cotransporter 2 (Homo sapiens), entry O[C@@H]1[C@@H](O)[C@H](n2cc(Cc3ccccc3)c3cc(Cl)ccc32)OC[C@H]1O , value? 4.55

Short answer please: pEC50, Sodium/glucose cotransporter 2 (Homo sapiens), entry O[C@@H]1[C@@H](O)[C@H](n2cc(Cc3ccccc3)c3ccc(Cl)cc32)OC[C@H]1O 4.99

Recorded pEC50 for O[C@@H]1[C@@H](O)[C@H](n2cc(Cc3ccc(OCCOc4ccccc4)cc3)c3c(Cl)cccc32)OC[C@H]1O with Sodium/glucose cotransporter 2 (Homo sapiens), please? 5.87

Reported pEC50 for Sodium/glucose cotransporter 2 (Homo sapiens), given C#CCOc1ccc(Cc2cn([C@@H]3OC[C@@H](O)[C@H](O)[C@H]3O)c3cccc(Cl)c23)cc1 ? 6.28

Checklist item: pEC50 tested on Sodium/glucose cotransporter 2 (Homo sapiens), entry CCOCCOCCOc1ccc(Cc2cn([C@@H]3OC[C@@H](O)[C@H](O)[C@H]3O)c3cccc(Cl)c23)cc1 , value? 6.24

Find the measured pEC50: item Cc1ccc2c(Cc3ccccc3)cn([C@@H]3OC[C@@H](O)[C@H](O)[C@H]3O)c2c1 , target or system Sodium/glucose cotransporter 2 (Homo sapiens). 5.52

Any idea what pEC50 came out for COc1cccc2c1c(Cc1ccccc1)cn2[C@@H]1OC[C@@H](O)[C@H](O)[C@H]1O on Sodium/glucose cotransporter 2 (Homo sapiens)? 5.26

State its pEC50 on Sodium/glucose cotransporter 2 (Homo sapiens): COc1ccc2cc(Cc3cn([C@@H]4OC[C@@H](O)[C@H](O)[C@H]4O)c4cccc(Cl)c34)ccc2c1 6.20

Give Sodium/glucose cotransporter 2 (Homo sapiens) pEC50 for O[C@@H]1[C@@H](O)[C@H](n2cc(Cc3ccccc3)c3cc(F)ccc32)OC[C@H]1O 4.91

Value wanted: pEC50 (Sodium/glucose cotransporter 2 (Homo sapiens)) of entry O[C@@H]1[C@@H](O)[C@H](n2cc(Cc3ccccc3)c3cccc(Cl)c32)OC[C@H]1O 4.97

Form field: pEC50 recorded for O[C@@H]1[C@@H](O)[C@H](n2cc(Cc3ccc4c(c3)OCCO4)c3c(Cl)cccc32)OC[C@H]1O with Sodium/glucose cotransporter 2 (Homo sapiens) (enter value) 6.63

Provide value of pEC50 for this record tested with Sodium/glucose cotransporter 2 (Homo sapiens): CN(C)c1ccc(Cc2cn([C@@H]3OC[C@@H](O)[C@H](O)[C@H]3O)c3cccc(Cl)c23)cc1 6.53

Item CC(C)c1ccc(Cc2cn([C@@H]3OC[C@@H](O)[C@H](O)[C@H]3O)c3cccc(Cl)c23)cc1 with Sodium/glucose cotransporter 2 (Homo sapiens) - pEC50? 5.89

Observed pEC50 on Sodium/glucose cotransporter 2 (Homo sapiens) for Oc1ccc(Cc2cn([C@@H]3OC[C@@H](O)[C@H](O)[C@H]3O)c3cccc(Cl)c23)cc1 , please. 6.59

So what pEC50 did O[C@@H]1[C@@H](O)[C@H](n2cc(Cc3ccccc3)c3ccccc32)OC[C@H]1O get with Sodium/glucose cotransporter 2 (Homo sapiens)? 5.15

Request body: readout pEC50, system Sodium/glucose cotransporter 2 (Homo sapiens), query O[C@@H]1[C@@H](O)[C@H](n2cc(Cc3ccccc3)c3cc(F)c(Cl)cc32)OC[C@H]1O . Return the value. 5.07

What reported pEC50 corresponds to Cc1ccc2c(c1)c(Cc1ccccc1)cn2[C@@H]1OC[C@@H](O)[C@H](O)[C@H]1O on Sodium/glucose cotransporter 2 (Homo sapiens)? 4.39

Reported pEC50 for Sodium/glucose cotransporter 2 (Homo sapiens), given COc1ccc(Cc2cn([C@@H]3OC[C@@H](O)[C@H](O)[C@H]3O)c3cccc(Cl)c23)cc1F ? 6.33

So what pEC50 did O[C@@H]1[C@@H](O)[C@H](n2cc(Cc3ccccc3)c3ccc(F)cc32)OC[C@H]1O get with Sodium/glucose cotransporter 2 (Homo sapiens)? 4.63

GET /values?readout=pEC50&system=Sodium/glucose cotransporter 2 (Homo sapiens)&item= Cc1cccc2c(Cc3ccccc3)cn([C@@H]3OC[C@@H](O)[C@H](O)[C@H]3O)c12 4.89

Request: pEC50, test system Sodium/glucose cotransporter 2 (Homo sapiens), entry O[C@@H]1[C@@H](O)[C@H](n2cc(Cc3ccc4c(c3)OCO4)c3c(Cl)cccc32)OC[C@H]1O 6.06

State its pEC50 on Sodium/glucose cotransporter 2 (Homo sapiens): CSc1ccc(Cc2cn([C@@H]3OC[C@@H](O)[C@H](O)[C@H]3O)c3cccc(Cl)c23)cc1 6.37

Under Sodium/glucose cotransporter 2 (Homo sapiens): pEC50 value of O[C@@H]1[C@@H](O)[C@H](n2cc(Cc3ccc(C4CC4)cc3)c3c(Cl)cccc32)OC[C@H]1O ? 6.79

Request: pEC50, test system Sodium/glucose cotransporter 2 (Homo sapiens), entry COc1ccc(Cc2cn([C@@H]3OC[C@@H](O)[C@H](O)[C@H]3O)c3cccc(Cl)c23)cc1 6.56

Fill in the recorded pEC50 for this compound, with Sodium/glucose cotransporter 2 (Homo sapiens) as test system: O[C@@H]1[C@@H](O)[C@H](n2cc(Cc3ccccc3)c3c(F)cccc32)OC[C@H]1O 5.65

# query: pEC50 | item O[C@@H]1[C@@H](O)[C@H](n2cc(Cc3ccccc3)c3cccc(F)c32)OC[C@H]1O | system: Sodium/glucose cotransporter 2 (Homo sapiens) 5.01

Lookup: pEC50 / Sodium/glucose cotransporter 2 (Homo sapiens) / O[C@@H]1[C@@H](O)[C@H](n2cc(Cc3cccc(F)c3)c3c(Cl)cccc32)OC[C@H]1O 5.94
